Source: patent US8304539B2

System: AP-1
Experiment: Cellular transrepression assay (AP-1 luciferase reporter in A549 cells, PMA activated)
Type: cell-based
Details: 7 h, 10 ng/ml PMA, read-out: AP-1 Max % inhibition (measured in cellular transrepression assay)
Protocol: Cellular Transrepressional Assay To measure the ability of test molecules to inhibit AP-1 induced transcriptional activity we utilized an A549 cell which was stably transfected with a plasmid containing 7×AP-1 DNA binding sites (pAP-1-Luc plasmid, Stratagene Co. La Jolla, Calif.) followed by the gene for luciferase. […] After a 10 minute incubation of luciferase reagent with cells, luminescence was measured in a TopCount luminescence counter. […]
QUANTITY KIND: Emax
Don't forget the unit after the value.

The examples below pair each entry with its known result.
1. CCN(C)C(=O)c1ccc(-c2ccc3c(n2)Oc2nc(C)ccc2[C@@H]3C(C)(C)C(=O)Nc2nccs2)cc1; 64.9%
2. CCN(C)C(=O)c1ccc(-c2ccc3c(n2)Oc2nc(C)ccc2[C@@H]3C(C)(C)C(=O)Nc2nnc(C(=O)NCC(F)(F)F)s2)cc1; 51.7%
3. Cc1ccc2c(n1)Oc1nc(-c3ccc(C(=O)N(C)C4CC4)cc3)ccc1[C@H]2C(C)(C)C(=O)Nc1nncs1; 39.2%

// next item, Emax requested
Emax reading for Cc1ccc2c(n1)Oc1nc(N(C)C)ccc1C2C(C)(C)C(=O)Nc1nncs1 (stereo not shown) : 27.9%
